# tested_system: T1, PACAP-R3 (human, UniProt P41587 24-438)
# T1 sequence (looked up): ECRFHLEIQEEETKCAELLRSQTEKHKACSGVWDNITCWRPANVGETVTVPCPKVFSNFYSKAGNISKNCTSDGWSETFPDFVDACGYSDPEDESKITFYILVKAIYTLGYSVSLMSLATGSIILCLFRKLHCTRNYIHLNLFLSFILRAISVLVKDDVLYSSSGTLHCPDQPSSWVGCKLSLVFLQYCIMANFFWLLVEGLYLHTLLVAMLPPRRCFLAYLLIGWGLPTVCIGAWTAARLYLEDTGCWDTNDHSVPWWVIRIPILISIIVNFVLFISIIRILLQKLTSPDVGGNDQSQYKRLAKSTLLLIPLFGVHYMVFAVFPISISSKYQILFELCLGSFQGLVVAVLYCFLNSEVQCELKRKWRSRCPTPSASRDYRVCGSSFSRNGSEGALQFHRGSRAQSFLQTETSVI
# method: cell-based or functional assay
measured_metric: R3 EC50 (nM)
Respond numerically; units are nM and should not be typed.

Field request: R3 EC50 | item: HSDAVFTDNYTRLRKQMAYKKYLNSIKNKR [R3P115]
6

***
Field request: R3 EC50 | item: HSDAVFTDNYTRLRKQMAHKKYLNSIKNKR [R3P102]
60

Now this one: HSDAVFTDNYTRLRKQLAAKKYLNDILNGGT [R3P27]
0.8

Now this one: HSDAVFTDNYTRLRKQMAAKKYLNSIKNRR [R3P147]
0.2
